assay: yeast display, Sf9 membrane polyspecificity reagent, FACS + sequencing; frameworks hold sequencing errors
Quantity kind: polyreactivity (PSR sort gate)

As a guide, the following entries are already answered.
[[record]]
sequence_data = "QVQLVESGGGLVQAGGRLRLSCAASGSIFDLNAMGWYRQAPGKERELVAAISSGGGTYYADSVKGRFTISRDNAKNTVYLQMNSLKPEDTAVYYCNRVTRWTYNYWGQGTQVTVSS"
result = "high polyreactivity"

[[record]]
sequence_data = "QVQLVESGGGLVQAGGSLRLSCAASGLTFYLYDMGWYRQAPGKERELVAAISRRGTSTYYADSVKGRFTISRDNAKNTVYLQMNSLKPEDTAVYYCAADRKFGRDYWGQGTQVTVSS"
result = "high polyreactivity"

[[record]]
sequence_data = "QVQLVESGGGVVQAGGSLRLSCAASGFTFVYNAMGWYRQAPGKEREFVAAISGRGGSTYYADSVKGRFTISRDNAKNTVYLQMNSLKPEDTAVYYCATTYSWYYVPYKTHIYYYWGQGTQVTVSS"
result = "low polyreactivity"

[[record]]
sequence_data = "QVQLVESGGGLVQAGGSLRLSCAASGSIFYPYARGWYRQAPGKERELVASITINDGSTYYADSVKGRFTISRDNAKNTVYLQMNSLKPADTAVYYSAVDWLSVTSTIKFEMDYWGQGTQVTVSS"
result = "low polyreactivity"


Now for the sequence whose polyreactivity (PSR sort gate) we want.
Prompt: Fill in the blank: the reported polyreactivity (PSR sort gate) of "QVQLVESCGCLVQAGGSLRLSCAASGRTFFHYDMGWYRQAPGKDRELEAGISSGGRTKYADSVKGRFTISRDNAKNTVYLQMNSLNPEDTAAYYCAASYIVWLTRGAPRKRFDYWGQGSQVTVSS" is ____.
Response: high polyreactivity
